# testDetails: DRUGMATRIX: Interleukin IL-1 radioligand binding (ligand: [125I] interleukin 1beta)
# Type: cell membranes, Membrane
# experimentalContext: nih3t3; Not Active = under 50% inhibition at 10 µM
propertyMeasured: Ki

# substance, result
records = [
    ("AURANOFIN", "Not Active"),
    ("SODIUM ORTHOVANAD", "Not Active"),
    ("GENTAMICIN", "Not Active"),
    ("GADOPENTETATE DIMEGLUMINE", "Not Active"),
    ("GRAMICIDIN", "Not Active"),
    ("MANGANESE CHLORIDE ANHYDROUS", "Not Active"),
    ("NYSTATIN", "Not Active"),
]

###

# testTarget: Substance-P receptor (Homo sapiens, UniProt P25103); also: in other assays of this panel Not Active means under 50% inhibition at 10 µM
# Sequence (P25103 whole entry): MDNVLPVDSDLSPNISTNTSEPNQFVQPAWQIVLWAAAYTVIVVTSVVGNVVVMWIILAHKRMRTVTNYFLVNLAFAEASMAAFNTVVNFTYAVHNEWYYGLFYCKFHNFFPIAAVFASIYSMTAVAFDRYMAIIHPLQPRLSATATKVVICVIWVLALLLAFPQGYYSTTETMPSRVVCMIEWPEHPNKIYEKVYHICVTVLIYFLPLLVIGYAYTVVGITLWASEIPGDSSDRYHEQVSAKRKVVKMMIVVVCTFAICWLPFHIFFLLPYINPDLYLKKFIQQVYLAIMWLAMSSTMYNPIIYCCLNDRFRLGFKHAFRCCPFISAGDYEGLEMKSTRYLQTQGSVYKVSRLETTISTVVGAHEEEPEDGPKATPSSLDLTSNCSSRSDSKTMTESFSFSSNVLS
# Format: cell membranes, CHO, Membrane
# experimentalContext: cho

# compound, testTarget, IC50
data = [
    ("COC(=O)Nc1nc2ccc([S+]([O-])c3ccccc3)cc2[nH]1 (stereo not drawn)", "Substance-P receptor (Homo sapiens, UniProt P25103)", "Not Active"),
    ("C[C@@H]1C[C@H]2[C@@H]3CCC4=CC(=O)C=C[C@]4(C)[C@@]3(F)[C@@H](O)C[C@]2(C)[C@H]1C(=O)CO", "Substance-P receptor (Homo sapiens, UniProt P25103)", "Not Active"),
    ("CCC1(CCC(C)C)C(=O)NC(=O)NC1=O", "Substance-P receptor (Homo sapiens, UniProt P25103)", "Not Active"),
    ("Brc1c(NC2=NCCN2)ccc2nccnc12", "Substance-P receptor (Homo sapiens, UniProt P25103)", "Not Active"),
    ("Cc1cccc(C)c1OCC(C)N (stereo not drawn)", "Substance-P receptor (Homo sapiens, UniProt P25103)", "Not Active"),
    ("O=C(O)c1cccnc1Nc1cccc(C(F)(F)F)c1", "Substance-P receptor (Homo sapiens, UniProt P25103)", "Not Active"),
    ("COc1ccc2[nH]cc(CCNC(C)=O)c2c1", "Substance-P receptor (Homo sapiens, UniProt P25103)", "Not Active"),
    ("Nc1ccn([C@@H]2O[C@H](CO)[C@@H](O)C2(F)F)c(=O)n1", "Substance-P receptor (Homo sapiens, UniProt P25103)", "Not Active"),
    ("Cn1c(=O)c2nc[nH]c2n(C)c1=O.O", "Substance-P receptor (Homo sapiens, UniProt P25103)", "Not Active"),
    ("CC(C)NNC(=O)c1ccncc1", "Substance-P receptor (Homo sapiens, UniProt P25103)", "Not Active"),
    ("CC(c1cc2ccccc2s1)N(O)C(N)=O (stereo not drawn)", "Substance-P receptor (Homo sapiens, UniProt P25103)", "Not Active"),
    ("CC(C(=O)O)c1ccc2oc(-c3ccc(Cl)cc3)nc2c1 (stereo not drawn)", "Substance-P receptor (Homo sapiens, UniProt P25103)", "Not Active"),
    ("CC(=O)O[C@H]1C(=O)[C@@]2(C)[C@H]([C@H](OC(=O)c3ccccc3)[C@]3(O)C[C@H](OC(=O)[C@H](O)[C@@H](NC(=O)c4ccccc4)c4ccccc4)C(C)=C1C3(C)C)[C@]1(OC(C)=O)CO[C@@H]1C[C@@H]2O", "Substance-P receptor (Homo sapiens, UniProt P25103)", "Not Active"),
    ("CC[C@H]1CN2CCc3cc(OC)c(OC)cc3[C@@H]2C[C@@H]1C[C@H]1NCCc2cc(OC)c(OC)cc21", "Substance-P receptor (Homo sapiens, UniProt P25103)", "Not Active"),
    ("CCCNCC(O)COc1ccccc1C(=O)CCc1ccccc1 (stereo not drawn)", "Substance-P receptor (Homo sapiens, UniProt P25103)", "Not Active"),
    ("CCCN(CCC)S(=O)(=O)c1ccc(C(=O)O)cc1", "Substance-P receptor (Homo sapiens, UniProt P25103)", "Not Active"),
    ("CC(C)=CCC/C(C)=C/CO", "Substance-P receptor (Homo sapiens, UniProt P25103)", "Not Active"),
    ("C=CCc1ccc(O)c(OC)c1", "Substance-P receptor (Homo sapiens, UniProt P25103)", "Not Active"),
    ("COc1c2occc2cc2ccc(=O)oc12", "Substance-P receptor (Homo sapiens, UniProt P25103)", "Not Active"),
    ("CN(C/C=C/C#CC(C)(C)C)Cc1cccc2ccccc12", "Substance-P receptor (Homo sapiens, UniProt P25103)", "Not Active"),
    ("Nc1ccc2c3c(cccc13)C(=O)NC2=O", "Substance-P receptor (Homo sapiens, UniProt P25103)", "Not Active"),
    ("CS(=O)(=O)c1ccc([C@@H](O)[C@@H](CO)NC(=O)C(Cl)Cl)cc1", "Substance-P receptor (Homo sapiens, UniProt P25103)", "Not Active"),
    ("COc1ccc(CCN(C)CCCC(C#N)(c2ccc(OC)c(OC)c2)C(C)C)cc1OC (stereo not drawn)", "Substance-P receptor (Homo sapiens, UniProt P25103)", "Not Active"),
    ("C[n+]1ccc(-c2cc[n+](C)cc2)cc1.[Cl-].[Cl-] [PARAQUAT DICHLORIDE]", "Substance-P receptor (Homo sapiens, UniProt P25103)", "Not Active"),
    ("COc1cc([C@@H]2c3cc4c(cc3[C@@H](O[C@@H]3O[C@@H]5CO[C@@H](C)O[C@H]5[C@H](O)[C@H]3O)[C@H]3COC(=O)[C@H]23)OCO4)cc(OC)c1O [ETOPOSIDE]", "Substance-P receptor (Homo sapiens, UniProt P25103)", "Not Active"),
    ("CC(C)Cc1ccc([C@@H](C)C(=O)O)cc1 [(R)-IBUPROPHEN]", "Substance-P receptor (Homo sapiens, UniProt P25103)", "Not Active"),
    ("CC(C)(C)NC(=O)[C@H]1CC[C@H]2[C@@H]3CC[C@H]4NC(=O)C=C[C@]4(C)[C@H]3CC[C@]12C [FINASTERIDE]", "Substance-P receptor (Homo sapiens, UniProt P25103)", "Not Active"),
    ("CCCOc1ccc(C(=O)OCCN(CC)CC)cc1N", "Substance-P receptor (Homo sapiens, UniProt P25103)", "Not Active"),
    ("CCCCNc1ccc(C(=O)OCCN(C)C)cc1", "Substance-P receptor (Homo sapiens, UniProt P25103)", "Not Active"),
    ("COC(=O)CCc1ccc(OCC(O)CNC(C)C)cc1 (stereo not drawn)", "Substance-P receptor (Homo sapiens, UniProt P25103)", "Not Active"),
    ("CO[C@@H]1[C@@H](OC)[C@H](C)[C@@](O)(CC(=O)O)O[C@H]1[C@H](C)[C@H]1O[C@@]2(CC[C@@](C)([C@H]3CC[C@@](C)([C@@H]4O[C@@H]([C@H]5O[C@](C)(O)[C@H](C)C[C@@H]5C)C[C@@H]4O[C@@H]4C[C@H](OC)[C@@H](OC)[C@H](C)O4)O3)O2)C[C@H](O)[C@H]1C", "Substance-P receptor (Homo sapiens, UniProt P25103)", "Not Active"),
    ("COc1cc2nc(N3CCN(C(=O)c4ccco4)CC3)nc(N)c2cc1OC", "Substance-P receptor (Homo sapiens, UniProt P25103)", "Not Active"),
    ("CCC(=O)O[C@]1(C(=O)CCl)[C@@H](C)C[C@H]2[C@@H]3CCC4=CC(=O)C=C[C@]4(C)[C@@]3(F)[C@@H](O)C[C@@]21C [CLOBETASOL PROPIONATE]", "Substance-P receptor (Homo sapiens, UniProt P25103)", "Not Active"),
]
